- targetDesc: UniProt Q923Y8
- assayExplanation: Radioligand binding assay on mouse TAAR1
observedProperty: pKi
By convention, pKi is the negative base-10 log of a molar concentration.

Below are worked cases with known answers.
CC(C)n1nc(OCC(F)(F)F)cc1C(=O)Nc1ccc([C@@H]2O[C@H]3CN[C@@H]2C3)cc1; 7.55
Cc1n[nH]c(C(=O)Nc2ccc([C@H]3O[C@@H]4CN[C@H]3C4)cc2)c1Cl; 8.01
O=C(Nc1ccc([C@@H]2O[C@H]3CN[C@@H]2C3)cc1)c1cnc(C2CC2)nc1; 7.50
CCc1n[nH]c(C(=O)Nc2ccc([C@@H]3O[C@H]4CN[C@@H]3C4)cc2)c1Cl; 8.33
O=C(Nc1ccc([C@H]2O[C@@H]3CN[C@H]2C3)cc1)c1ccnc(C(F)(F)F)c1; 7.65

Form field: pKi recorded for "O=C(Nc1cccc([C@@H]2O[C@H]3CN[C@@H]2C3)c1)c1ccc(Cl)cc1" with UniProt Q923Y8 (enter value) 5.60

Now consider "O=C(Nc1ccc([C@@H]2O[C@H]3CN[C@@H]2C3)cc1)c1ccc(C(F)(F)F)nc1" . 7.82

Now consider "O=C(Nc1ccc(F)cc1)c1ccc([C@H]2O[C@@H]3CN[C@H]2C3)cc1" . 8.47

Now consider "O=C(Nc1ccc(Cl)cc1)c1ccc([C@H]2O[C@@H]3CN[C@H]2C3)cc1" . 9.15

Now consider "CCOc1ccc(NC(=O)c2ccc([C@H]3O[C@@H]4CN[C@H]3C4)cc2)cn1" . 8.31

====

- targetDesc: UniProt:Q923Y9
- assayExplanation: Radioligand binding assay on rat TAAR1
observedProperty: log10(Ki) (log10 of the value in nM)
Give log10 of Ki, with Ki taken in nM.

Below are worked cases with known answers.
CCCc1n[nH]c(C(=O)Nc2ccc([C@@H]3O[C@H]4CN[C@@H]3C4)cc2)c1F; 2.01
c1ccc([C@H]2O[C@@H]3CN[C@H]2C3)cc1; 2.57
c1ccc([C@H]2O[C@@H]3CN[C@H]2C3)nc1; 2.51
O=C(Nc1ccc([C@H]2O[C@@H]3CN[C@H]2C3)cc1)c1[nH]nc(C2CC2)c1Cl; 3.43
O=C(NCc1ccc(C(F)(F)F)cc1)c1ccc([C@H]2O[C@@H]3CN[C@H]2C3)cc1; 2.77

State the recorded log10(Ki) for this entry: "FC(F)(F)c1cnc(Nc2ccc([C@H]3O[C@@H]4CN[C@H]3C4)cc2)nc1" 2.16

Now consider "CCOc1n[nH]c(C(=O)Nc2ccc([C@H]3O[C@@H]4CN[C@H]3C4)cc2)c1Cl" . 2.32

Now consider "FC(F)(F)c1ccc(CNc2ccc([C@H]3O[C@@H]4CN[C@H]3C4)cc2)cc1" . 2.56

Now consider "FC(F)(F)COc1ccnc(Nc2ccc([C@H]3O[C@@H]4CN[C@H]3C4)cc2)n1" . 1.92

====

Each entry below carries its recorded Ki.
- targetDesc: mouse TAAR1 (Mus musculus (Mouse))
- assayExplanation: Radioligand binding assay on mouse TAAR1
Numbers only; they are read as nM.

Below are worked cases with known answers.
O=C(Nc1ccc([C@H]2O[C@@H]3CN[C@H]2C3)cc1)c1ccc(OCC(F)(F)F)cn1 [Example 51]; 3.4
O=C(Nc1ccc([C@H]2O[C@@H]3CN[C@H]2C3)cc1)c1cnc(C2CC2)nc1 [Example 18]; 38
O=C(Nc1cccc(Cl)c1)Nc1cccc([C@@H]2O[C@H]3CN[C@@H]2C3)c1 [Example 5]; 1330
O=C(Nc1ccc(C(F)(F)F)cc1)c1ccc([C@H]2O[C@@H]3CN[C@H]2C3)cc1 [Example 59]; 2.2
Clc1ccc(Nc2ccc([C@@H]3O[C@H]4CN[C@@H]3C4)cc2)nc1 [Example 24]; 3.3
Brc1ccc([C@H]2O[C@@H]3CN[C@H]2C3)cc1 [Example 53]; 3.4
FC(F)(F)COc1nccc(Nc2ccc([C@@H]3O[C@H]4CN[C@@H]3C4)cc2)n1 [Example 83]; 9.7

Kindly consider the entry below.
Form field: Ki recorded for Cc1cn[nH]c1C(=O)Nc1ccc([C@H]2O[C@@H]3CN[C@H]2C3)cc1 [Example 47] with mouse TAAR1 (Mus musculus (Mouse)) (enter value) 313

====

- targetDesc: mouse TAAR1 (Mus musculus (Mouse))
- assayExplanation: Radioligand binding assay on mouse TAAR1
Each entry below carries its recorded pKi.
By convention, pKi is the negative base-10 log of a molar concentration.

Below are worked cases with known answers.
c1ccc([C@H]2O[C@@H]3CN[C@H]2C3)cc1 [Example 9]; 7.46
O=C(Nc1ccc(Br)cc1)c1ccc([C@@H]2O[C@H]3CN[C@@H]2C3)cc1 [Example 86]; 7.99
O=C(Nc1ccc(Cl)nc1)c1ccc([C@@H]2O[C@H]3CN[C@@H]2C3)cc1 [Example 94]; 7.60
O=C(Nc1ccc(Br)cc1)c1ccc([C@H]2O[C@@H]3CN[C@H]2C3)cc1 [Example 56]; 9.05

Kindly consider the entry below.
State the recorded pKi for this entry: O=C(Nc1ccc([C@@H]2O[C@H]3CN[C@@H]2C3)cc1)c1cccc(Cl)c1 [Example 10] 8.38

====

Each entry below carries its recorded Ki.
- targetDesc: mouse TAAR1 (Mus musculus (Mouse))
- assayExplanation: Radioligand binding assay on mouse TAAR1
Numbers only; they are read as nM.

Below are worked cases with known answers.
CCc1ncc(C(=O)Nc2ccc([C@@H]3O[C@H]4CN[C@@H]3C4)cc2)cn1; 109
O=C(COCC(F)(F)F)Nc1ccc([C@H]2O[C@@H]3CN[C@H]2C3)cc1; 12.3
CCOc1ccc(NC(=O)c2ccc([C@H]3O[C@@H]4CN[C@H]3C4)cc2)cc1; 1.3

State the recorded Ki for this entry: "FC(F)(F)c1cc(Nc2ccc([C@H]3O[C@@H]4CN[C@H]3C4)cc2)ccn1" 11

Now consider "FC(F)(F)c1cnc(Nc2ccc([C@@H]3O[C@H]4CN[C@@H]3C4)cc2)cn1" . 29.1

Now consider "Clc1ccc(CNc2ccc([C@H]3O[C@@H]4CN[C@H]3C4)cc2)cc1" . 562

Now consider "FC(F)(F)Oc1ccc(CNc2ccc([C@H]3O[C@@H]4CN[C@H]3C4)cc2)cc1" . 4.3

Now consider "O=C(Nc1ccc([C@H]2O[C@@H]3CN[C@H]2C3)cc1)c1ccnc(C(F)(F)F)n1" . 337

====

- targetDesc: rat TAAR1 (Rattus norvegicus (Rat))
- Sequence (Q923Y9 whole entry): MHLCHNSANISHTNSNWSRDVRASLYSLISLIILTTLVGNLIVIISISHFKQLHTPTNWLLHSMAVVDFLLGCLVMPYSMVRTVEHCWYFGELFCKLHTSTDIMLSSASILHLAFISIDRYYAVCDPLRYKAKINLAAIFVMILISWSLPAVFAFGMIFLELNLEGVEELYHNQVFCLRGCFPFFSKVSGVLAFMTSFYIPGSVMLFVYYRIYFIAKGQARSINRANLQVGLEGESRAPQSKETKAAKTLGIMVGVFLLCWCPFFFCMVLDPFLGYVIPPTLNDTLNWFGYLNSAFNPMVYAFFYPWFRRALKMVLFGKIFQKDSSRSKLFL
- assayExplanation: Radioligand binding assay on rat TAAR1
Note to self: Ki under 100 nM means class 1, ties and anything higher get class 0.

# count of solved cases: 5
CCc1n[nH]c(C(=O)Nc2ccc([C@H]3O[C@@H]4CN[C@H]3C4)cc2)c1C [Example 50]; class 0
COCCCNc1ccc([C@H]2O[C@@H]3CN[C@H]2C3)cc1 [Example 65]; class 1
FC(F)(F)c1cnc(Nc2ccc([C@@H]3O[C@H]4CN[C@@H]3C4)cc2)nc1 [Example 31]; class 1
O=C(Nc1ccc(F)cc1)c1ccc([C@@H]2O[C@H]3CN[C@@H]2C3)cc1 [Example 87]; class 0
O=C(Nc1ccc([C@@H]2O[C@H]3CN[C@@H]2C3)cc1)c1ccc(OCC2CC2)cc1 [Example 12]; class 0

Hello, is Ki of the following compound strictly smaller than 100 nM? O=C(Nc1ccc([C@H]2O[C@@H]3CN[C@H]2C3)cc1)c1ccc(OCC2CC2)cc1 [Example 32] class 0

Now consider CCCc1n[nH]c(C(=O)Nc2ccc([C@@H]3O[C@H]4CN[C@@H]3C4)cc2)c1Cl [Example 68] . class 1

Now consider CCOc1ccc(NC(=O)c2ccc([C@H]3O[C@@H]4CN[C@H]3C4)cc2)cc1 [Example 58] . class 0

====

- targetDesc: mouse TAAR1 (Mus musculus (Mouse), UniProt Q923Y8)
- Sequence (Q923Y8 whole entry): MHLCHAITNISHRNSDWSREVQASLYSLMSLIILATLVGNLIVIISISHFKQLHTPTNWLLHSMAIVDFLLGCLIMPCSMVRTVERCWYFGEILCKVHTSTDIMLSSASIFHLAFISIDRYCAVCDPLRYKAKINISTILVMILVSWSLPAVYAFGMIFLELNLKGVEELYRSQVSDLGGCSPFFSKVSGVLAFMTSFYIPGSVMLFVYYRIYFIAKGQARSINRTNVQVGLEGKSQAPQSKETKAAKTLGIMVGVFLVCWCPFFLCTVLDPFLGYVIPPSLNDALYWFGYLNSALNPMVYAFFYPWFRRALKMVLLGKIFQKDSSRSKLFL
observedProperty: Kd

Form field: Kd recorded for CCN(C[C@H]1COC(N)=N1)c1ccccc1 [reference compound] with mouse TAAR1 (Mus musculus (Mouse), UniProt Q923Y8) (enter value) ~0.7 nM

====

Each entry below carries its recorded Ki.
- targetDesc: rat TAAR1 (Rattus norvegicus (Rat))
- assayExplanation: Radioligand binding assay on rat TAAR1;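 also: membranes from HEK293 cells stably transfected with rat TAAR1, tritiated TAAR1 radioligand, 1 h incubation at 4 °C, nonspecific binding determined with excess unlabeled ligand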
- experimentalSetup: read-out: Ki (μM) rat; rat TAAR1, HEK-293 membranes; second value of cell mouse/rat
Numbers only; they are read as µM.

Below are worked cases with known answers.
CCc1n[nH]c(C(=O)Nc2ccc([C@@H]3O[C@H]4CN[C@@H]3C4)cc2)c1C [Example 67]; 0.503
CCCCc1n[nH]c(C(=O)Nc2ccc([C@@H]3O[C@H]4CN[C@@H]3C4)cc2)c1F [Example 92]; 0.0879

Kindly consider the entry below.
State the recorded Ki for this entry: O=C(Nc1ccc([C@@H]2O[C@H]3CN[C@@H]2C3)cc1)c1[nH]nc(C2CC2)c1Cl [Example 82] 0.0339

====

- targetDesc: mouse TAAR1 (Mus musculus (Mouse))
- assayExplanation: Radioligand binding assay on mouse TAAR1
Each entry below carries its recorded Ki.
Numbers only; they are read as nM.

Below are worked cases with known answers.
CCc1ncc(C(=O)Nc2ccc([C@H]3O[C@@H]4CN[C@H]3C4)cc2)cn1 [Example 34]; 56.3
CCOc1n[nH]c(C(=O)Nc2ccc([C@H]3O[C@@H]4CN[C@H]3C4)cc2)c1Cl [Example 45]; 4.2
c1ccc([C@@H]2O[C@H]3CN[C@@H]2C3)cc1 [Example 6]; 1540
CCCCc1cc(C(=O)Nc2ccc([C@@H]3O[C@H]4CN[C@@H]3C4)cc2)[nH]n1 [Example 93]; 4.2
CCOc1n[nH]c(C(=O)Nc2ccc([C@@H]3O[C@H]4CN[C@@H]3C4)cc2)c1Cl [Example 98]; 6.8

Form field: Ki recorded for O=C(NCc1ccc(Cl)cc1)c1ccc([C@@H]2O[C@H]3CN[C@@H]2C3)cc1 [Example 97] with mouse TAAR1 (Mus musculus (Mouse)) (enter value) 51.1

Now consider CC(C)c1cc(C(=O)Nc2ccc([C@H]3O[C@@H]4CN[C@H]3C4)cc2)[nH]n1 [Example 43] . 14.4

Now consider O=C(Nc1ccc([C@H]2O[C@@H]3CN[C@H]2C3)cc1)c1[nH]nc(C2CC2)c1Cl [Example 37] . 61.3

meta.source: patent US9790230B2
